Test system: HepG2
Experiment: GSK_TCMDC: Percent inhibition of human HepG2 cell line. Test compounds present at 10uM.
Type: functional
MEASUREMENT_KIND: Inhibition
State the value, then name its unit.

Worked examples follow.
[
  {
    "MOLECULE": "CCCc1cc([C@@H](O)[C@@H]2C[C@@H]3CCN2C[C@@H]3CC)c2ccccc2n1",
    "ASSAY_TARGET": "HepG2",
    "Inhibition": "9%"
  },
  {
    "MOLECULE": "C/C=C1\\CN2CC[C@H]1C[C@H]2[C@H](O)c1ccnc2ccc(O)cc12",
    "ASSAY_TARGET": "HepG2",
    "Inhibition": "0%"
  },
  {
    "MOLECULE": "Cc1c(C(=O)N[C@@H](C)c2ccccc2)c2cc(O)c(Br)cc2n1C1CCCCC1",
    "ASSAY_TARGET": "HepG2",
    "Inhibition": "4%"
  }
]

So, Cl.Cl.c1ccc2c(NCCCCCCNc3c4ccccc4nc4ccccc34)c3ccccc3nc2c1 ? Its Inhibition was 60%

So, CCCCNC(c1ccc(Cl)cc1)C(O)c1ccc(Cl)cc1.Cl (stereo not given) ? Its Inhibition was 13%

So, COc1cccc(C=CC(=O)NC2CCC(CN3CCC(c4c[nH]c5ccccc45)CC3)CC2)c1OC (stereo not given) ? Its Inhibition was 37%

So, Cc1cc2ccc(CNCCc3ccccc3Br)cc2nc1N.Cl ? Its Inhibition was 0%

So, c1ccc(C(OCCC2CCN(Cc3cccc4cccnc34)CC2)c2ccccc2)cc1 ? Its Inhibition was 9%

So, CCC1(C)CC(CCNCc2ccccc2O)(c2ccc(C)cc2)CCO1 (stereo not given) ? Its Inhibition was 9%

So, CCOC(=O)c1c(C)n(C2CCCCCC2)c2cc(Br)c(O)cc12 ? Its Inhibition was 0%
